- assay.method.text: HeLa cell cytotoxicity, dose response, cytotoxicity control, ATP luminescence, cherry-pick samples (AID 687004)
- run.parameters: HeLa viability, ATP luminescence (CellTiter-Glo), 48 h; series mostly up to 26 µM
Measured potencies and affinities stand elsewhere. Active and inactive are the calls of the source.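 Rule for the calls: active = a fitted half-maximal concentration no higher than twice the top valid tested dose, with signal falling as cells die; inconclusive = flat curve between -70% and -30%, or poor fit; inactive = the rest, including signal rising instead of falling.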
measurement.type: activity change, negative = cytotoxicity

{"compound": "CCCNC(=O)[C@H]1[C@H](CO)[C@H]2Cn3c(cccc3=O)[C@@H]1N2C(=O)Nc1cc(F)ccc1F", "activity change, negative = cytotoxicity": "inactive"}
{"compound": "CCC(C)N(C(=O)CSc1ncnc2c1cnn2-c1ccccc1)C1CCS(=O)(=O)C1 (centres undefined)", "activity change, negative = cytotoxicity": "inactive"}
{"compound": "CC(=O)NC[C@H]1[C@@H](c2ccc(C3=CCCC3)cc2)[C@@H](CO)N1C(=O)NC(C)C", "activity change, negative = cytotoxicity": "inactive"}
{"compound": "O=C(NC[C@H]1[C@@H](c2ccccc2)[C@@H](CO)N1C(=O)C1CCC1)NC1CCCC1", "activity change, negative = cytotoxicity": "inactive"}

For every record below, what is its activity change, negative = cytotoxicity?
1. CCOC(=O)CNC(=O)CSc1ncnc2c1cnn2-c1ccc(Cl)cc1
2. COCCN1C(=S)N[C@@H](c2ccccc2)C(C(=O)OC)=C1C
3. CCCOc1ccc(CNC(=S)NCc2ccc(OC(C)C)cc2)cc1
4. O=C(C[C@@H]1CC[C@@H]2[C@H](COC[C@H](O)CN2S(=O)(=O)c2ccc(Oc3ccccc3)cc2)O1)NC1CCC1
5. Cc1noc(C)c1S(=O)(=O)Nc1ccc2c(c1)C(=O)N([C@H](C)CO)C[C@H](C)[C@H](CN(C)Cc1ccncc1)O2
6. COc1cccc(NC(=S)N2CCC(Cc3ccccc3)CC2)c1
7. C[C@H](CO)N1C[C@H](C)[C@@H](CN(C)C(=O)Nc2ccc(F)cc2)Oc2c(NS(=O)(=O)c3ccccc3)cccc2C1=O
8. O=C(CSc1ncnc2c1cnn2-c1ccc(F)cc1)NC1CCCC1

Reply text:
1. inactive
2. inactive
3. inactive
4. inactive
5. inactive
6. inactive
7. inactive
8. inactive

For each of the compounds below, note its activity change, negative = cytotoxicity.
1. N#Cc1ccc(C23CC4(C2)[C@H](CN(Cc2ccc(C(F)(F)F)cc2)[C@@H]4c2ccccc2)C3c2ccccc2)cc1 (some centres undefined)
2. Fc1ccccc1CNC(=S)NCc1ccc(Cl)cc1
3. Fc1ccccc1NC(=S)NCCc1cccc(Cl)c1
4. O=C(NCCN1CCCCC1)[C@H]1N[C@H]2c3ccc(-c4ccncc4)c(=O)n3C[C@H]2[C@@H]1CO

Reply text:
inactive
inactive
inactive
inactive
